# TEST PROTOCOL: Pharmacokinetic plasma parameters of J147, oral and intravascular administration
# Assay type: in vivo, Adult Wister Rats
# CONDITION SUMMARY: Wistar, rat, plasma, po, 20 mg/kg, PO_A 20 mg/kg; Mean
QUANTITY: AUC(0-inf)
Answer with the number, then the unit.

IN: Item COc1cccc(/C=N/N(C(=O)C(F)(F)F)c2ccc(C)cc2C)c1 has what recorded AUC(0-inf)?
OUT: 121 ng·h/mL

---

# TEST PROTOCOL: Pharmacokinetic plasma parameters of J147, oral and intravascular administration
# Type: in vivo, Adult Wister Rats
# CONDITION SUMMARY: Wistar, rat, plasma, iv, 5 mg/kg, IV 5 mg/kg; Mean of 4 animals; read-out: tmax
QUANTITY: Tmax (min)
Number only, in min; omit the unit.

IN: Item COc1cccc(/C=N/N(C(=O)C(F)(F)F)c2ccc(C)cc2C)c1 has what recorded Tmax?
OUT: 7.5

---

# TEST PROTOCOL: Plasma levels of J147 after oral administration in Basis suspension
# Format: in vivo, Adult Wister Rats
# CONDITION SUMMARY: Wistar, rat, plasma, po, 20 mg/kg, oral 20 mg/kg in Basis suspension; 6 h; mean of rats; read-out: Plasma Conc. Mean
QUANTITY: concentration at 6 h (ng/mL)
Number only, in ng/mL; omit the unit.

IN: Item COc1cccc(/C=N/N(C(=O)C(F)(F)F)c2ccc(C)cc2C)c1 has what recorded concentration at 6 h?
OUT: 2.46

---

# TEST PROTOCOL: Pharmacokinetic plasma parameters of J147, oral and intravascular administration
# Type: in vivo, Adult Wister Rats
# CONDITION SUMMARY: Wistar, rat, plasma, po, 20 mg/kg, PO_B (oral, Basis); Mean
QUANTITY: half-life
Answer with the number, then the unit.

IN: Item COc1cccc(/C=N/N(C(=O)C(F)(F)F)c2ccc(C)cc2C)c1 [J147] has what recorded half-life?
OUT: 1.42 h

---

# TEST PROTOCOL: Brain levels of J147 after oral administration in Basis suspension
# Format: in vivo, Adult Wister Rats
# CONDITION SUMMARY: Wistar, rat, brain, po, 20 mg/kg, oral 20 mg/kg in Basis suspension, PO_B satellite; 0.5 h; detected value multiplied by 4; Group 1, Group 2; read-out: Brain Actual Conc.
QUANTITY: concentration at 0.5 h (ng/g)
Number only, in ng/g; omit the unit.

IN: Item COc1cccc(/C=N/N(C(=O)C(F)(F)F)c2ccc(C)cc2C)c1 has what recorded concentration at 0.5 h?
OUT: 4.56

---

# TEST PROTOCOL: Plasma levels of J147 after oral administration in Basis suspension
# Type: in vivo, Adult Wister Rats
# CONDITION SUMMARY: Wistar, rat, plasma, po, 20 mg/kg, oral 20 mg/kg in Basis suspension; 6 h; individual rats (Rat 10, 11, 12); read-out: Plasma Conc.
QUANTITY: concentration at 6 h (ng/mL)
Number only, in ng/mL; omit the unit.

IN: Item COc1cccc(/C=N/N(C(=O)C(F)(F)F)c2ccc(C)cc2C)c1 has what recorded concentration at 6 h?
OUT: 3.14

---

# TEST PROTOCOL: Brain levels of J147 after oral administration in Basis suspension
# Assay type: in vivo, Adult Wister Rats
# CONDITION SUMMARY: Wistar, rat, brain, po, 20 mg/kg, oral 20 mg/kg in Basis suspension, PO_B satellite; 2 h; mean of Group 1 and 2; read-out: Brain Actual Conc. Mean
QUANTITY: concentration at 2 h
Answer with the number, then the unit.

IN: Item COc1cccc(/C=N/N(C(=O)C(F)(F)F)c2ccc(C)cc2C)c1 has what recorded concentration at 2 h?
OUT: 28 ng/g

---

# TEST PROTOCOL: Pharmacokinetic plasma parameters of J147, oral and intravascular administration
# Format: in vivo, Adult Wister Rats
# CONDITION SUMMARY: Wistar, rat, plasma, iv, 5 mg/kg, IV 5 mg/kg; Mean of 4 animals
QUANTITY: AUC(0-inf)
Answer with the number, then the unit.

IN: Item COc1cccc(/C=N/N(C(=O)C(F)(F)F)c2ccc(C)cc2C)c1 has what recorded AUC(0-inf)?
OUT: 795 ng·h/mL

---

# TEST PROTOCOL: Plasma levels of J147 after oral administration in Basis suspension
# Type: in vivo, Adult Wister Rats
# CONDITION SUMMARY: Wistar, rat, plasma, po, 20 mg/kg, oral 20 mg/kg in Basis suspension; 2 h; mean of rats; read-out: Plasma Conc. Mean
QUANTITY: concentration at 2 h (ng/mL)
Number only, in ng/mL; omit the unit.

IN: Item COc1cccc(/C=N/N(C(=O)C(F)(F)F)c2ccc(C)cc2C)c1 [J147] has what recorded concentration at 2 h?
OUT: 15.8

---

# TEST PROTOCOL: Pharmacokinetic plasma parameters of J147, oral and intravascular administration
# Assay type: in vivo, Adult Wister Rats
# CONDITION SUMMARY: Wistar, rat, plasma, iv, 5 mg/kg, IV 5 mg/kg; individual animals (1148, 1154, 1156, 1158)
# Experimental: Plasma samples obtained during surgery in J147-treated rats and 3 control rats were measured for circulating levels of J147. Results of pharmacokinetic measures of both plasma and brain levels of J147 in rats following oral administration of J147 in basis suspension at 20 mg/kg and also following intravascular administration at 5 mg/kg are shown in Table 2A-C below. […]
QUANTITY: AUC(0-inf) (ng·h/mL)
Number only, in ng·h/mL; omit the unit.

IN: Item COc1cccc(/C=N/N(C(=O)C(F)(F)F)c2ccc(C)cc2C)c1 [J147] has what recorded AUC(0-inf)?
OUT: 924

---

# TEST PROTOCOL: Pharmacokinetic plasma parameters of J147, oral and intravascular administration
# Assay type: in vivo, Adult Wister Rats
# CONDITION SUMMARY: Wistar, rat, plasma, iv, 5 mg/kg, IV 5 mg/kg; individual animals (1148, 1154, 1156, 1158); read-out: MRT
QUANTITY: MRT (min)
Number only, in min; omit the unit.

IN: Item COc1cccc(/C=N/N(C(=O)C(F)(F)F)c2ccc(C)cc2C)c1 [J147] has what recorded MRT?
OUT: 32.8

---

# TEST PROTOCOL: Brain levels of J147 after oral administration in Basis suspension
# Assay type: in vivo, Adult Wister Rats
# CONDITION SUMMARY: Wistar, rat, brain, po, 20 mg/kg, oral 20 mg/kg in Basis suspension, PO_B satellite; 0.25 h; detected value multiplied by 4; Group 1, Group 2; read-out: Brain Actual Conc.
QUANTITY: concentration at 0.25 h (ng/g)
Number only, in ng/g; omit the unit.

IN: Item COc1cccc(/C=N/N(C(=O)C(F)(F)F)c2ccc(C)cc2C)c1 has what recorded concentration at 0.25 h?
OUT: 2.94

---

# TEST PROTOCOL: Pharmacokinetic plasma parameters of J147, oral and intravascular administration
# Type: in vivo, Adult Wister Rats
# CONDITION SUMMARY: Wistar, rat, plasma, po, 20 mg/kg, PO_A 20 mg/kg, 7 mg/mL in Basis; Mean
QUANTITY: half-life (h)
Number only, in h; omit the unit.

IN: Item COc1cccc(/C=N/N(C(=O)C(F)(F)F)c2ccc(C)cc2C)c1 has what recorded half-life?
OUT: 1.41

---

# TEST PROTOCOL: Plasma levels of J147 after oral administration in Basis suspension
# Type: in vivo, Adult Wister Rats
# CONDITION SUMMARY: Wistar, rat, plasma, po, 20 mg/kg, oral 20 mg/kg in Basis suspension; 8 h; mean of rats; read-out: Plasma Conc. Mean
QUANTITY: concentration at 8 h (ng/mL)
Number only, in ng/mL; omit the unit.

IN: Item COc1cccc(/C=N/N(C(=O)C(F)(F)F)c2ccc(C)cc2C)c1 has what recorded concentration at 8 h?
OUT: 0.788

---

# TEST PROTOCOL: Brain levels of J147 after oral administration in Basis suspension
# Type: in vivo, Adult Wister Rats
# CONDITION SUMMARY: Wistar, rat, brain, po, 20 mg/kg, oral 20 mg/kg in Basis suspension, PO_B satellite; 8 h; mean of Group 1 and 2; read-out: Brain Actual Conc. Mean
QUANTITY: concentration at 8 h (ng/g)
Number only, in ng/g; omit the unit.

IN: Item COc1cccc(/C=N/N(C(=O)C(F)(F)F)c2ccc(C)cc2C)c1 has what recorded concentration at 8 h?
OUT: 3.26

---

# TEST PROTOCOL: Plasma levels of J147 at the time of surgery
# Format: in vivo, Wistar rats
# CONDITION SUMMARY: male, Wistar, rat, plasma, oral; chronic J147, 500 mg/kg food from 1 week before surgery; absence of an appropriate peak taken as zero; read-out: mean concentration of J147 in plasma during surgery
QUANTITY: concentration at 1 week (ng/mL)
Number only, in ng/mL; omit the unit.

IN: Item COc1cccc(/C=N/N(C(=O)C(F)(F)F)c2ccc(C)cc2C)c1 has what recorded concentration at 1 week?
OUT: 0.233
